Provenance of the data: patent EP4585618A1

- target_entity: T1, His-tagged ILT2 protein extracellular domain: ILT2-His (human, UniProt Q8NHL6 24-461)
- T1 construct: The entry is the whole construct, with the His tag; also called human ILT2 protein
- test_description: ELISA, coated protein 1 µg/mL, antibody 10 µg/mL
As shown below, each of these binders has a reported absorbance at 450 nm value.
Lab book: enter the figure in absorbance at 450 nm, no units written.

Would you please look over these solved cases?
1) humanized antibody huP2-E3 (antibody, human IgG4 S228P, kappa, F234A L235A, V domains shown, Full chains; The constant region is hIgG1(LALA) or hIgG4(LALA) with a kappa CL; also called P2-E3H6L2) VH: EVQLVQSGAEVKKPGASVKVSCKASGYTFTDYYMNWVKQAPGQRLEWMGDINPNSGGTSYNQKFKGRVTITVDKSGSTAYMELSSLRSEDTAVYYCARGGVTTVVATYWYFDVWGQGTTVTVSS VL: DIQMTQSPSSLSASVGDRVTITCRASENIYSNLAWYQQKPGKSPKLLVYAATNVADGVPSRFSGSGSGTDYTLTISSLQPEDFATYYCQQFWDTPFTFGQGTKLEIKR : 0.0541
2) humanized antibody huP2-C6 (antibody, human IgG1, kappa, L234A L235A, V domains shown, Full chains; also called P2-C6H7L1) VH: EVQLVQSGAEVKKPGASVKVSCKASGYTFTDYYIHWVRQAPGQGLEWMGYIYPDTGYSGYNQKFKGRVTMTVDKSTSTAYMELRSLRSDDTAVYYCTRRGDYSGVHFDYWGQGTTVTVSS VL: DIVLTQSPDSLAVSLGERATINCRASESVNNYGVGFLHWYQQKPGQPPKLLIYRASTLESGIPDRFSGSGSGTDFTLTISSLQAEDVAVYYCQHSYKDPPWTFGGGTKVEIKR : 0.0621
3) fully human-derived antibody P2m (antibody, human IgG1, kappa, L234A L235A, V domains shown, Full chains) VH: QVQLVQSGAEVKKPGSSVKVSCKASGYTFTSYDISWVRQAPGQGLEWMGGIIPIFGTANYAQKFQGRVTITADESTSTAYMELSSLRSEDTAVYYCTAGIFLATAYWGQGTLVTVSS VL: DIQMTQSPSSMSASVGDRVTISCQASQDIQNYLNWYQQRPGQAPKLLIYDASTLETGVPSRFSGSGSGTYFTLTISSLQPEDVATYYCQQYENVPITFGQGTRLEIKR : 0.0517
4) humanized antibody huP2-E8 (antibody, human IgG4 S228P, kappa, F234A L235A, V domains shown, Full chains; also called P2-E8H4L1) VH: EVQLVESGGGLVKPGGSLRLSCAASGFTFSDYGIHWVRQAPGKGLEWVAYISSGSSIHNYADTVKGRFTISRDNAKNSLYLQMNSLRAEDTAVYYCARGPNYYGSSYLLVYWGQGTLVTVSS VL: DIQMTQSPSSLSASVGDRVTITCKASQDVNIAVAWYQQKPGKAPKLLIYSASYRYTGVPSRFSGSGSGTDFTFTISSLQPEDIATYYCQQHYNIPWTFGGGTKVEIKR : 0.0569

Let's switch to this binder now.
Request: Name the reported absorbance at 450 nm value associated with the binder humanized antibody huP2-G9 (antibody, human IgG1, kappa, L234A L235A, V domains shown, Full chains; also called P2-G9H1L2) VH: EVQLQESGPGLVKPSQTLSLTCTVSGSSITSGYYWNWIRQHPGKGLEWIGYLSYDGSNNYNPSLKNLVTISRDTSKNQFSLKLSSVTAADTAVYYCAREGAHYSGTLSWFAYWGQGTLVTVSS VL: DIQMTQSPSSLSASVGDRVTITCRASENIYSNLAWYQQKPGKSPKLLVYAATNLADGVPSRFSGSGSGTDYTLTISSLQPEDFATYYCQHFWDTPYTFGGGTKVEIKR
Response: 0.0541
